- Test system: S. cerevisiae JAY 270
- run.description: Serum-bottle cultivation in YPD: biomass, glycerol, ethanol yields
- Type: cell-based, Saccharomyces cerevisiae
- applied.conditions: 0.05% (w/v), YPD, serum bottles
Marks after values point to notes of the source that are not given here.
Parameter Biomass yield % change vs. control: see the listing below.
measured.property: Biomass yield % change vs. control

OCCc1ccccc1 ... −11* %
OCCc1ccc(O)cc1 ... −5%
OB(O)O [Boric acid, reference compound] ... 0%
OCCc1c[nH]c2ccccc12 ... −22* %

====

- Tested on: S. cerevisiae JAY 270
- run.description: Serum-bottle cultivation in YPD: biomass, glycerol, ethanol yields
- Type: cell-based, Saccharomyces cerevisiae
- applied.conditions: 0.2% (w/v), YPD, serum bottles
measured.property: Biomass Yield

OB(O)O [Boric acid, reference compound] ... 0.116 + 0.001 g/g
OCCc1c[nH]c2ccccc12 ... 0.042 + 0.006 g/g
OCCc1ccc(O)cc1 ... 0.085 + 0.003 g/g
OCCc1ccccc1 ... 0.064 + 0.002 g/g
